target: Bovine serum albumin (BSA) (Bos taurus, UniProt P02769 P02769:25-607); assay: FP; control protein; conditions: label: 5'-fluorescein
Sequence (P02769 25-607, one chain of several): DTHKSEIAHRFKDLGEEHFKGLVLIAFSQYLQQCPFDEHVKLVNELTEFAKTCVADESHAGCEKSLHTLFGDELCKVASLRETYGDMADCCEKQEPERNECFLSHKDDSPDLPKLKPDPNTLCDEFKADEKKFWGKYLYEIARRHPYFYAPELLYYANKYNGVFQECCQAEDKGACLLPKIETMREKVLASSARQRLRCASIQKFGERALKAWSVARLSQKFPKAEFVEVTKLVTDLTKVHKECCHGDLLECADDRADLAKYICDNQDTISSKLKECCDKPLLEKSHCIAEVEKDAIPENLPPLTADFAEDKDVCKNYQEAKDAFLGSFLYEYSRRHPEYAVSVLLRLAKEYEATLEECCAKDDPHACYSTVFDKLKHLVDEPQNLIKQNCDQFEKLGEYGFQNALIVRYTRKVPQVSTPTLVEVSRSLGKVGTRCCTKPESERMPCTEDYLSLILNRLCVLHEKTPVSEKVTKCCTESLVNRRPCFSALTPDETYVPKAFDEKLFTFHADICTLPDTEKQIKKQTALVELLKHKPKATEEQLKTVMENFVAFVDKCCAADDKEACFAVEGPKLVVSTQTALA
assayMetric: pKd
The meaning of pKd here: minus log10 of the concentration in molar units.

ATACCAGCTTATTCAATT (ssDNA) [5' primer]	6.52
ATACCAGCTTATTCAATTGGGGGAGGGGGCGACGCGATACCC (ssDNA) [clone22bases1-42]	6.70
ATACCAGCTTATTCAATTGGGGTAGGGGGCGAAGCGATACCCTAATCAGC (ssDNA) [clone26bases1-50]	7.00

Next:
What does the record list as pKd for GGGGGAGGGGGCGACGCGATACCC (ssDNA) [clone22bases19-42] ? 6.40
